tested on: Mus musculus; assay: Inhibition of haloperidol-induced catalepsy in po dosed mouse; assay type: functional
# reported ED50; entries follow
endpoint name: ED50

1. N#Cc1cccc(-c2nc(N)nc3c2C(=O)c2cccc(CN4CCOCC4)c2-3)c1 :: 1.7 mg/kg
2. CC(=O)N1CCN(Cc2cccc3c2-c2nc(N)nc(-c4ccccc4)c2C3=O)CC1 :: 10.7 mg/kg
3. Nc1nc(-c2ccc(F)cc2)c2c(n1)-c1cc(CN3CCCC3)ccc1C2=O :: 1.6 mg/kg
4. Nc1nc(-c2ccc(F)cc2)c2c(n1)-c1c(CN3CCCC3)cccc1C2=O :: 0.8 mg/kg
